# ASSAY_COMMENT: Phase I trial of oral PCLX-001: plasma pharmacokinetics, noncompartmental analysis (Phoenix WinNonlin 8.3)
# Format: in vivo, human
# CONDITION_DESCRIPTION: human, plasma, oral, 140 mg, Table 5; median (min, max); on Pantoprazole; 140 mg; N 2; Day 1; read-out: Tmax
ASSAY_METRIC: Tmax (h)
State the answer as a number, implicitly in h.

Reported Tmax of Cc1c(NS(=O)(=O)c2c(Cl)cc(-c3ccnc(N4CCNCC4)c3)cc2Cl)c(CC(C)C)nn1C [PCLX-001] : 1

----------
# ASSAY_COMMENT: Phase I trial of oral PCLX-001: plasma pharmacokinetics, noncompartmental analysis (Phoenix WinNonlin 8.3)
# Format: in vivo, human
# CONDITION_DESCRIPTION: human, plasma, oral, 70 mg, Table 5; Mean (CV); on Pantoprazole; 70 mg; N 2; Day 15
ASSAY_METRIC: Cmax (ng/mL)
Write it as a number; the unit ng/mL goes unstated.

"Cc1c(NS(=O)(=O)c2c(Cl)cc(-c3ccnc(N4CCNCC4)c3)cc2Cl)c(CC(C)C)nn1C" yielded Cmax of 386

----------
# ASSAY_COMMENT: Phase I trial of oral PCLX-001: plasma pharmacokinetics, noncompartmental analysis (Phoenix WinNonlin 8.3)
# Format: in vivo, human
# CONDITION_DESCRIPTION: human, plasma, oral, 100 mg, Table 4; not on Pantoprazole; 100 mg; N 2; Day 15; value from N = 1 patient; read-out: t½ (converted)
ASSAY_METRIC: half-life (h)
Answer in h, number only, no unit symbol.

Kindly note the recorded half-life for Cc1c(NS(=O)(=O)c2c(Cl)cc(-c3ccnc(N4CCNCC4)c3)cc2Cl)c(CC(C)C)nn1C [PCLX-001] , which is 7.56

----------
# ASSAY_COMMENT: Phase I trial of oral PCLX-001: plasma pharmacokinetics, noncompartmental analysis (Phoenix WinNonlin 8.3)
# Assay type: in vivo, human
# CONDITION_DESCRIPTION: human, plasma, po, 20 mg, Table 1A; Patient 115-002-004 (Patient 3); Day 15; 20 mg oral daily
ASSAY_METRIC: AUC(0-inf) (ng·h/mL)
Write the answer as a number in ng·h/mL, unit excluded.

AUC(0-inf) reading for "Cc1c(NS(=O)(=O)c2c(Cl)cc(-c3ccnc(N4CCNCC4)c3)cc2Cl)c(CC(C)C)nn1C" : 2150

----------
# ASSAY_COMMENT: Phase I trial of oral PCLX-001: plasma pharmacokinetics, noncompartmental analysis (Phoenix WinNonlin 8.3)
# Type: in vivo, human
# CONDITION_DESCRIPTION: human, plasma, po, 70 mg, Table 8; Patient 115-002-008; Day 1; 70 mg QD oral; Pantoprazole Yes; read-out: AUClast or AUCtau
ASSAY_METRIC: AUC(0-t) (ng·h/mL)
Numbers only here, please. The scale is ng·h/mL.

The compound identified as "Cc1c(NS(=O)(=O)c2c(Cl)cc(-c3ccnc(N4CCNCC4)c3)cc2Cl)c(CC(C)C)nn1C" registered its AUC(0-t) at 4550

----------
# ASSAY_COMMENT: Phase I trial of oral PCLX-001: plasma pharmacokinetics, noncompartmental analysis (Phoenix WinNonlin 8.3)
# Format: in vivo, human
# CONDITION_DESCRIPTION: human, plasma, po, 20 mg, Table 6; Patient 115-002-004; Day 1; 20 mg QD oral; Pantoprazole No
ASSAY_METRIC: Cmax (ng/mL)
Give just the number in ng/mL; leave the unit off.

Measured Cmax, "Cc1c(NS(=O)(=O)c2c(Cl)cc(-c3ccnc(N4CCNCC4)c3)cc2Cl)c(CC(C)C)nn1C" : 326

Values from patent US20250161299A1
